Tested on: MALME-3M melanoma
test method notes: NCI-60 one-dose screen, 48 h
run conditions: 10 µM unless noted
Method: Cells are grown in 96 well plates and exposed to the test compound for 48 hours. Compounds are tested at a single concentration, which is 10^-5 M for most compounds. The reported endpoint is percent growth (GI% or GIPRCNT), where numbers from 0 - 100% represent growth inhibition, and numbers from -100% - 0 represent cell death. For example, a value of 40 represents 60% growth inhibition. A value of 0 means no net growth occurred over the course of the experiment. […]
This is part of a sample that, as a whole, favours compounds with a hit. Of some 83,000 tested, about 20% had one in any assay. Active and inactive are the calls of the source. Rule for the calls: active = growth percent below 10; inactive = the rest.
Log the outcome using a class from yes (active), no (inactive)

Worked set:
molecule	label value
Cc1c2ncccc2nc2[nH]c3ccc(OCCN(C)C)cc3c12	no
Nc1cc(Br)cc2c1[nH]c(=O)c1ccccc12	no
CC(=O)c1sc(-c2ccc(F)cc2)cc1O	no
COc1ccc(Nc2ncc(C#N)c(NCCCNC(=O)C3CCC3)n2)cc1	no
C=CCN=c1sc(-c2ccc3ccccc3c2)cn1NC(=O)c1cc2ccc1CCc1ccc(cc1)CC2	no
CC/C(=C(/c1ccc(O)cc1)c1ccc(OCCN2CCCCC2)cc1)c1ccc(OC)cc1	yes

Which result was noted for this molecule in the test: COc1ccc(-c2cc(-c3cc(OC)ccc3OC)nc(SCC(C)=O)c2C#N)cc1
no

Which result was noted for this molecule in the test: O=S(O)c1cc(Cl)cc(Cl)c1OCc1ccccc1
no

Which result was noted for this molecule in the test: COc1ccc(OC)c(Nc2nnc(-c3cc(OC)c(OC)c(OC)c3)o2)c1
no

Which result was noted for this molecule in the test: COc1cc(/C=C/c2cc(/C=C/c3ccc(O)c(OC)c3)n(C(=O)Nc3ccc(Cl)cc3)n2)ccc1O
yes

Data credit: PubChem BioAssay (NCI)
